biological target: Serine/threonine-protein kinase TAO2 (Homo sapiens, UniProt Q9UL54); note: in the data inactive means no Kd found up to 30 µM
Sequence (Q9UL54 whole entry): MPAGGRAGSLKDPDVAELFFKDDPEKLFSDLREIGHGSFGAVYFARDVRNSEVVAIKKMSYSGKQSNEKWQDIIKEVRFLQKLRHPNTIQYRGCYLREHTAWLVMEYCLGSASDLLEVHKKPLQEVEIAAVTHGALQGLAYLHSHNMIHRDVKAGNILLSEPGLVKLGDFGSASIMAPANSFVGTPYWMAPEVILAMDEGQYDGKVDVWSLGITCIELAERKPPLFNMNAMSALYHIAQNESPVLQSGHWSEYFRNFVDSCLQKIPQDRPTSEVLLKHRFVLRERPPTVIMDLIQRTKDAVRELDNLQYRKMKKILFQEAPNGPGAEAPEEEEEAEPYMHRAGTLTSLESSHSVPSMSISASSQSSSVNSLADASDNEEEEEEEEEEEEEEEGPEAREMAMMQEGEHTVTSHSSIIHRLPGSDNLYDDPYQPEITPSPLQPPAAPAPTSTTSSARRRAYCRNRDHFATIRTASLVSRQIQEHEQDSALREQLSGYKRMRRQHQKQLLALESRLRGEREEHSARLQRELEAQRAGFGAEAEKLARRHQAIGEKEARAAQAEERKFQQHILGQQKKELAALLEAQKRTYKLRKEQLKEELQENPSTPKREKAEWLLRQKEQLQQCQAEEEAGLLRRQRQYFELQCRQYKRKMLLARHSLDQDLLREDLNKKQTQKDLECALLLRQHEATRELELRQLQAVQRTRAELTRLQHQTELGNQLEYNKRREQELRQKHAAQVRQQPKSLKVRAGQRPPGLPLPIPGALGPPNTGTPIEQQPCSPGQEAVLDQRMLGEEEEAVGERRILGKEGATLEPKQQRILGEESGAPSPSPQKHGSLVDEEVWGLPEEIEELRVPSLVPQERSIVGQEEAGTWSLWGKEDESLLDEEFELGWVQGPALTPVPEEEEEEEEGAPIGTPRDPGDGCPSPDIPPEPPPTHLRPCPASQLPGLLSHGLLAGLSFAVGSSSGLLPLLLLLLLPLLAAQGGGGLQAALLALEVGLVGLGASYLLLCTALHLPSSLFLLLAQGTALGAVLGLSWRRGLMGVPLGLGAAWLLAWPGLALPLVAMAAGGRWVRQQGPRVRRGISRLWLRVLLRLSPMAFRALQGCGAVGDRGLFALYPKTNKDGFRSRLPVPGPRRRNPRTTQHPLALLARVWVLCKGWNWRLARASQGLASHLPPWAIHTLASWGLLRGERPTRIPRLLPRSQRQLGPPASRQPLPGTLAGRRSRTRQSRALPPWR
Calls of active or inactive are those of the source.
Write down one outcome, taken from active, inactive

Q) Please share the test call associated with `Cc1nc2cc(-c3nn(C(C)C)c4ncnc(N)c34)ccc2o1` .
A) active

Q) Please share the test call associated with `COc1cc([C@@H]2c3cc4c(cc3[C@H](O)[C@H]3COC(=O)[C@@H]23)OCO4)cc(OC)c1OC` .
A) inactive

Q) Please share the test call associated with `Cc1cc(C(=O)NOCCO)c(Nc2ccc(I)cc2F)n(C)c1=O` .
A) inactive

Q) Please share the test call associated with `COc1ccc(S(=O)(=O)N(C(C)=O)c2ccccc2/C=C/c2cc[n+]([O-])cc2)cc1` .
A) inactive

Q) Please share the test call associated with `CCNC(=O)C#Cc1ccc2c(c1)NC(=O)/C2=C(\Nc1ccc(CN(C)C)cc1)c1ccccc1` .
A) inactive

Q) Please share the test call associated with `C[C@H]1CNCCCN1S(=O)(=O)c1cccc2cncc(F)c12` .
A) inactive

Q) Please share the test call associated with `CO[C@H]1C[C@@H]2CC[C@@H](C)[C@@](O)(O2)C(=O)C(=O)N2CCCC[C@H]2C(=O)O[C@H]([C@H](C)C[C@@H]2CC[C@@H](OC(=O)C(C)(CO)CO)[C@H](OC)C2)CC(=O)[C@H](C)/C=C(\C)[C@@H](O)[C@@H](OC)C(=O)[C@H](C)C[C@H](C)/C=C/C=C/C=C/1C` .
A) inactive

----------
Target: Discoidin domain-containing receptor 2 (Homo sapiens); note: in the data inactive means no Kd found up to 30 µM
Sequence (Q16832 whole entry): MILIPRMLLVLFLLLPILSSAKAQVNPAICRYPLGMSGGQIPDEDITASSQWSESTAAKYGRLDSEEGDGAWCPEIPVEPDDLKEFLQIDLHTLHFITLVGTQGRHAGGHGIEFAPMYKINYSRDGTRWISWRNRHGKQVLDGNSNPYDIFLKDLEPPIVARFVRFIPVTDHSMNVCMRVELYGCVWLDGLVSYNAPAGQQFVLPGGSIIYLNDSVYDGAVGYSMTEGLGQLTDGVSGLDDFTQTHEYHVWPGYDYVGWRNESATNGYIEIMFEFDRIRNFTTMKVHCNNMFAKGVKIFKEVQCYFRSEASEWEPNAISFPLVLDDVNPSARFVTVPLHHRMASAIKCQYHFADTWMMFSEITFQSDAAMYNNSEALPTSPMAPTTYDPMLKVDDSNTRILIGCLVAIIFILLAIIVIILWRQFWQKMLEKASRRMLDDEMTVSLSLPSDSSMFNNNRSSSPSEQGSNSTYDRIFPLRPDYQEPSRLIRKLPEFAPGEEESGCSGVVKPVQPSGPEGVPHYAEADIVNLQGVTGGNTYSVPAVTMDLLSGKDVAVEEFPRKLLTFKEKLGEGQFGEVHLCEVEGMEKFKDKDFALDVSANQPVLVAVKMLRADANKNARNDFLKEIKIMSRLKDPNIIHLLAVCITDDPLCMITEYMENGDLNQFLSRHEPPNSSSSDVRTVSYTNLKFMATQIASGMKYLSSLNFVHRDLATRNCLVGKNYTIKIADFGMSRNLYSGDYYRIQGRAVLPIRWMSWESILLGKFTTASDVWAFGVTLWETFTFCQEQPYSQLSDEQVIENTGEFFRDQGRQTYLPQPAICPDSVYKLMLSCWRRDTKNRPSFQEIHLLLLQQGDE
Activity calls are given as the source filed them.
Write down one outcome, taken from true (1) (active), false (0) (inactive)

Q) Please share the test call associated with `COCC(=O)NC/C=C/c1ccc2ncnc(Nc3ccc(Oc4ccc(C)nc4)c(C)c3)c2c1` .
A) false (0)

Q) Please share the test call associated with `CC(C)c1cc(CNc2nc(Nc3cc(C4CC4)[nH]n3)cc(N3CCN(C)CC3)n2)on1` .
A) true (1)

Q) Please share the test call associated with `Cn1ncc(Cl)c1-c1cc(C(=O)N[C@H](CN)Cc2ccc(F)c(F)c2)oc1Cl` .
A) false (0)

Q) Please share the test call associated with `CCn1c(C(=O)N(C2CC2)C2CC2)cc2c3c(ncn3C)c(Nc3cc(C)n(C)n3)nc21` .
A) false (0)

Q) Please share the test call associated with `CNC(=O)c1cccc2cc(Oc3ccnc4cc(OCC5(N)CC5)c(OC)cc34)ccc12` .
A) true (1)

Q) Please share the test call associated with `Cc1cc(C(=O)NOCCO)c(Nc2ccc(I)cc2F)n(C)c1=O` .
A) false (0)

Q) Please share the test call associated with `C[C@@H](Oc1cc(C(=O)Nc2ccc(C(=O)N3CCN(C)CC3)cc2)nnc1N)c1c(Cl)ccc(F)c1Cl` .
A) false (0)

Q) Please share the test call associated with `Cn1cc(-c2cnn3c(N)c(Br)c([C@@H]4CCCNC4)nc23)cn1` .
A) false (0)

Q) Please share the test call associated with `COc1cc(Nc2ncc3c(n2)-c2ccc(Cl)cc2C(c2c(F)cccc2OC)=NC3)ccc1C(=O)O` .
A) false (0)
